Provide the reported Preemergence herbicidal rating AMBEL of each item.
# Test system: AMBEL (Ragweed, Common)
# method-summary: Preemergence herbicidal evaluation
# Type: in vivo, Ambrosia artemisifolia
# measurement-parameters: 0.0625 kg/ha, rated 4-5 weeks after treatment

Query CCOC(=O)CN1C(=O)C(OC)SC1=Nc1cc(-n2c(=O)cc(C(F)(F)F)n(C)c2=O)c(F)cc1Cl (stereo not shown) yields Preemergence herbicidal rating AMBEL of 9.0

Query "Cn1c(C(F)(F)F)cc(=O)n(-c2cc(N=C3SCC(=O)N3C3CCCC3)c(Cl)cc2F)c1=O" yields Preemergence herbicidal rating AMBEL of 3.0

Query "CC(C)N1C(=O)CSC1=Nc1cc(-n2c(=O)cc(C(F)(F)F)n(C)c2=O)c(F)cc1Cl" yields Preemergence herbicidal rating AMBEL of 7.0

Query "CCN1C(=O)CSC1=Nc1cc(-n2c(=O)cc(C(F)(F)F)n(C)c2=O)c(F)cc1Cl" yields Preemergence herbicidal rating AMBEL of 4.0
